Biological target: Serine/threonine-protein kinase TBK1 (Homo sapiens)
Sequence (whole entry): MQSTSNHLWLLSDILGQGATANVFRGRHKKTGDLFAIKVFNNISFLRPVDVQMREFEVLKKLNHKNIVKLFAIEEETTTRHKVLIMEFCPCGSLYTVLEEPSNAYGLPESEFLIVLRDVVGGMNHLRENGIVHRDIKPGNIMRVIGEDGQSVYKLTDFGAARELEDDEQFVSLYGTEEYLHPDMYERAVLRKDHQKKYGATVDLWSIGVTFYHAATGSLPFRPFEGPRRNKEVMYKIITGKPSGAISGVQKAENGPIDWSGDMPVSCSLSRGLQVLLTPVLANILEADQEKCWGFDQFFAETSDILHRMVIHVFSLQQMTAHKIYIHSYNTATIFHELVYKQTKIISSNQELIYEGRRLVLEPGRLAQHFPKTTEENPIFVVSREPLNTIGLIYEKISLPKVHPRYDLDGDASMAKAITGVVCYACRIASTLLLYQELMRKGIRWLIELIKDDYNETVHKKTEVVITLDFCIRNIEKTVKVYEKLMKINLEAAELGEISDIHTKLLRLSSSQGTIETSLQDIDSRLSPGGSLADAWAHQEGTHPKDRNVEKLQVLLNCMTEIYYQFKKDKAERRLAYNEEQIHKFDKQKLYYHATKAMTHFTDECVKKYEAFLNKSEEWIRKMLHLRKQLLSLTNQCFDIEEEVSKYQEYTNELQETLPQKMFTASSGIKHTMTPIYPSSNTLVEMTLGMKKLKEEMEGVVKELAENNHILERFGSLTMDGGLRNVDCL
Test: Inhibition of TBK1 (unknown origin) incubated at 10 nM for 1 hr in presence of ATP by FRET based Z'-Lyte assay relative to control
Recorded Endpoint: inhibition

Answered cases to consult:
- Compound: "O=C(NCCCn1cc(Cl)c2cnc(Nc3cccc(CN4CCOCC4)c3)nc21)C1CCC1"
  Reported Value: "9.6%"
- Compound: "O=C(NCCCn1ncc2cnc(Nc3cccc(CN4CCOCC4)c3)nc21)C1CCC1"
  Reported Value: "< 0%"
- Compound: "N#Cc1cn(CCCNC(=O)C2CCC2)c2nc(Nc3cccc(CN4CCOCC4)c3)ncc12"
  Reported Value: "< 0%"

We now examine a further compound.
Item under review: O=C(Nc1cccc(Cn2ccc3cnc(Nc4cccc(CN5CCOCC5)c4)nc32)c1)C1CCC1 . Reported inhibition? < 0%

Cited source: ChEMBL document CHEMBL5352492
